assay: Oral bioavailability in rat; assay type: ADME, organism-based; conditions: in vivo
observable: bioavailability (%)
// return numeric value only (unit: %, not printed)

Prompt: Consider the compound shown here: `COc1ccc(Sc2ccc(Cl)cc2N2CCN(CC(=O)O)[C@H](C)C2)cc1` What is its recorded bioavailability?
Response: 100
